src = ChEMBL document CHEMBL1201862

# System: ACHN
# Assay Overview: NCI tumour cell line growth inhibition, 48 h
Activity calls are given as the source filed them. Cut-off read from the data, not from the text of the source: active = GI50 up to about 1.1 µM and inactive = higher.
Quantity Name: GI50

1. COc1ccc(C(=O)NCCC2=CCCCC2)cc1 : > 100 µM (inactive)
2. S=c1cc(-c2ccc3c(c2)OCO3)s[nH]1 : > 100 µM (inactive)
3. CC(C)(C)C1CC[C@H]2c3c([nH]c4ccccc34)[C@H]3C(=O)N(c4ccc(F)cc4)C(=O)[C@H]3[C@H]2C1 (stereo partly specified) : 14.1 µM (inactive)
4. CCCCCCCCCCC(O)C1CCC(C2CCC(C(O)CCCCC(O)CCCCCC(O)CC3=CC(C)OC3=O)O2)O1 (stereo unspecified) : > 25 µM (inactive)
5. COC(=O)C1=CC(=O)OC1(OO)c1ccc(Br)cc1 (stereo unspecified) : > 100 µM (inactive)
6. NCCCNCCCNCCCN : > 100 µM (inactive)

---

# Tested on: CCRF-CEM
# Assay Overview: NCI tumour cell line growth inhibition, 48 h
The source made the active and inactive calls. Cut-off read from the data, not from the text of the source: active = GI50 up to about 1.1 µM and inactive = higher.
Classes used: active, inactive

1. Cc1ccc2nc3ccccc3c(C3C4C(=O)N(c5ccc(Br)cc5Cl)C(=O)C4ON3C(C(N)=O)c3ccccc3)c2c1 (configuration not stated) : inactive
2. CN(C)CCNC(=O)c1cccc2c1Oc1c(cccc1[N+](=O)[O-])O2 : active
3. COc1ccccc1NC(=O)C1=C(C)NC(C)=C(C(=O)Nc2ccccc2OC)C1c1ccccc1[N+](=O)[O-] : inactive
4. Nc1ncnc2oc(C3OC(COC(=O)c4ccccc4)C(OC(=O)c4ccccc4)C3OC(=O)c3ccccc3)nc12 (configuration not stated) : inactive
5. Cc1cc2c(cc1Cl)SC(NNCCO)=NS2(=O)=O : inactive
6. Oc1ccc(/C=N/NC(=S)Nc2cccnc2)nc1 : inactive
7. C=C1C(O)C23CCC4C(C(=O)O)(C(=O)O)CC(OC5OC(CO)C(O)C(OC(=O)CCc6ccccc6)C5NC(=O)CC(C)C)CC4(C)C2CCC1(O)C3 (configuration not stated) : inactive
8. Cc1c(CCCl)c(Cl)n2c(nc3ccccc32)c1C#N : active
9. COc1cc(CNc2ccc(SC)cc2)cc(OC)c1OC : inactive
10. COc1cc(C=O)c(-c2c(C=O)ccc3c2OCO3)c(OC)c1OC : inactive
11. Nc1nc(CCl)nc(Nc2ccccc2)n1 : inactive
12. CC1=C(C(=O)Nc2ccccc2C)C(c2ccc(N(C)C)cc2)C(C(=O)Nc2ccccc2C)=C(C)N1 : inactive
13. O=C(N/N=C/c1ccccc1O)c1ccccc1Nc1ccccc1C(=O)N/N=C/c1ccccc1O : active
14. CC(=O)OCC1OC(Nn2c(=O)[nH]c3ccccc3c2=O)C(OC(C)=O)C(OC(C)=O)C1OC(C)=O (configuration not stated) : inactive
15. CCN(CC)CCn1c2ccccc2c(=O)c2c(O)ccc(O)c21 : inactive
16. CCOc1ccc2nc(NC(=O)C(=O)C3C(=O)C(CC4C(=O)c5ccccc5C4=O)C(=O)CC3(C)C)sc2c1 (configuration not stated) : inactive
17. COC(=O)c1ccccc1/N=C(/NC1CCCCCC1)NS(=O)(=O)c1ccc(C)cc1 : inactive
18. Cc1cc(C)cc(Sc2c([N+](=O)[O-])ncn2C)c1 : inactive
19. CC1(CO)OC(n2cc(C(=O)NC(=O)OCc3ccccc3)c(=O)[nH]c2=O)CC1O (configuration not stated) : inactive
20. CN1CCC23c4c5ccc(O)c4OC2C(=NN=C2CCC4(O)C6Cc7ccc(O)c8c7C4(CCN6C)C2O8)CCC3(O)C1C5 (configuration not stated) : inactive
21. c1ccc(COC[C@H]2O[C@@H](c3ccccc3)C[C@@H](OCc3ccccc3)C2OCc2ccccc2)cc1 (some centres not stated) : inactive
22. CN1C2CCC1CC(=CCOC(c1ccc(F)cc1)c1ccc(F)cc1)C2 : inactive
23. CC(C)NC(=O)CN1CCN(C2=C(Cl)C(=O)c3c(O)ccc(O)c3C2=O)CC1 : active
24. O=C(O)/C(Cc1ccnc2ccccc12)=N\O : inactive
25. CC1=C[C@H](O)[C@@]2(C)[C@@H]([C@@H]1C)[C@H]1CC[C@@H]3[C@@]4(C)CC[C@H](O)C(C)(C)[C@@H]4CC[C@@]3(C)[C@]1(C)C[C@@H]2O : inactive
26. Cc1cc2c3ccccc3n(C)c2c2c1C(=O)C=CC2=O : inactive
27. COc1nc2cccc(C(O)c3ccccc3)c2nc1-c1ccccc1 (configuration not stated) : inactive
28. CN(C)NC1=C([N+](=O)[O-])C=NN(c2ccccc2)C1 : inactive
29. Cc1ccc(OCC2OC(n3cnc4c(Cl)nc(Cl)nc43)CC2Oc2ccc(C)cc2)cc1 (configuration not stated) : inactive
30. C[C@@H]1CCC2[C@@H](C)[C@@H](O[C@H]3O[C@@H]4O[C@@]5(C)CCC6[C@H](C)CCC([C@H]3C)[C@]64OO5)O[C@@H]3O[C@@]4(C)CCC1[C@@]23OO4 (some centres not stated) : inactive
31. OC(COc1ccc(Cl)cc1Cl)CN1CCCC1 (configuration not stated) : inactive
32. COc1ccc(C[C@@H](C(=O)O[C@H](C)[C@H](NC(=O)[C@@H](CC(C)C)N(C)C(=O)C2CCCN2C(=O)[C@H](C)O)C(=O)N2CCCCNC(=O)[C@@H](C)C(=O)[C@H](C(C)C)OC(=O)C[C@H](O)[C@H]2CC(C)C)N(C)C(C)=O)cc1 (some centres not stated) : inactive
33. CN[C@@H](Cc1cccc2ccccc12)C(=O)N[C@@H](CC(C)C)B(O)O : active
34. O=c1oc(=O)c2oc3ccccc3oc1=2 : inactive
35. CN(O)C(=O)Cc1ccc(OCc2cccc(Cl)c2)cc1 : inactive
36. COCOCCCCCO[Si](C)(C)C(C)(C)C : inactive
37. C=CCNC(=O)NCCCC(NC(C)=O)C(=O)NCc1ccccc1 (configuration not stated) : inactive

---

# Test system: SF-295
# Assay Overview: NCI tumour cell line growth inhibition, 48 h
The source made the active and inactive calls. No stated cut-off is given here; in the data, active = GI50 up to about 1.1 µM and inactive = higher.
Consider the following compounds and their measured GI50 readings.
Quantity Name: GI50

1. CC(C)[Si](OC1=C(C(=O)N(C)c2ccccc2Cl)CCCCC1)(C(C)C)C(C)C : > 100 µM (inactive)
2. OC(COc1ccc(Cl)cc1Cl)CN1CCCC1 (configuration not stated) : 89.7 µM (inactive)
3. CCOc1c2c(cc3c1C(=O)c1c(OC)cccc1C3=O)C=C(OC)CC2 : 10.7 µM (inactive)
4. Cc1cc(C)n2c(nc3ccccc32)c1C#N : > 100 µM (inactive)
5. Cc1ccc2cc3cccc(C(=O)NCCN(C)C)c3nc2c1 : 0.832 µM (active)
6. O=C(O)/C=C\C(=O)c1ccc(Cl)cc1 : > 100 µM (inactive)
7. CC1OC(OC2C(O[C@H]3CC[C@@]4(C)C(=CC[C@H]5[C@@H]6C[C@@H]7O[C@]8(CC[C@@H](C)CO8)[C@@H](C)[C@@H]7[C@@]6(C)CC[C@@H]54)C3)OC(CO)C(O)C2O)C(O)C(O)C1O (some centres not stated) : 1.15 µM (inactive)
8. N=C(N)NS(=O)(=O)c1ccc(N/N=C2/CCOC2=O)cc1 : 49.7 µM (inactive)
9. O=C(OCc1ccccc1)C(Cc1ccccc1)N(Cc1ccccc1)Cc1ccccc1 (configuration not stated) : > 100 µM (inactive)
10. O=C(/C=C/c1ccccc1)N1CCCCC1 : > 100 µM (inactive)
11. Nc1nc(CCl)nc(Nc2ccccc2)n1 : 23.8 µM (inactive)
12. O=C(c1ccccc1)C(C(=O)c1ccccc1)C1(O)C(=O)c2ccccc2C1=O : 28.2 µM (inactive)
13. O=[N+]([O-])c1ccccc1S(=O)(=O)c1cccc2c1NCCC2 : 31.5 µM (inactive)
14. O=C1C=Cc2c1csc2Br : > 100 µM (inactive)
15. C1C2CC3CC1CC(c1nn4c(C56CC7CC(CC(C7)C5)C6)nnc4s1)(C2)C3 : > 100 µM (inactive)
16. CCC(=O)Oc1ccc2c(c1)c(=O)c1c(NCCCN(C)C)ccc3nnn2c31 : 2.45 µM (inactive)
17. CN1C(=O)N(C)C2(O)c3ccccc3C(=O)C12O (configuration not stated) : > 100 µM (inactive)
18. CN1CCN(c2cc(-c3cc4ccccc4o3)oc(=O)c2C#N)CC1 : > 100 µM (inactive)
19. Cc1cc(S(=O)(=O)Nc2nc(Nc3ccccc3)n[nH]2)c(SSc2cc(Cl)c(C)cc2S(=O)(=O)Nc2nc(Nc3ccccc3)n[nH]2)cc1Cl : > 100 µM (inactive)
20. CC12N=NN(c3ccc([N+](=O)[O-])cc3)C1(O)c1ccccc1C2=O (configuration not stated) : > 100 µM (inactive)
21. CC1=NN2C=Nc3c(c(-c4ccc(Cl)cc4)cn3-c3ccc(C)cc3)C2N1 (configuration not stated) : 39.3 µM (inactive)
22. C=C=C(C(=O)OC)[S+]([O-])c1ccc([N+](=O)[O-])cc1[N+](=O)[O-] (configuration not stated) : > 92.7 µM (inactive)
23. CCCCc1ccc(Nc2nc(Cl)c3c(ncn3C3CC(Oc4ccc(C)cc4)C(COc4ccc(C)cc4)O3)n2)cc1 (configuration not stated) : > 100 µM (inactive)
24. C=C1C(=O)O[C@H]2[C@H]1[C@@H](OC(=O)C=C(C)C)CC1=C[C@@H](C[C@@]3(C)O[C@@H]23)OC1=O : 13.4 µM (inactive)
25. CC#CS(=O)(=O)c1ccccc1 : 3.56 µM (inactive)
26. CCc1ccc(NC(=O)NC(=O)c2ccccc2[N+](=O)[O-])cc1Oc1ncc(Cl)cn1 : < 0.0222 µM (active)
27. CC(=O)Nc1nc2c(=O)c3ccccc3sc2s1 : > 100 µM (inactive)
28. O=C1OC(c2ccccc2)=N/C1=C\c1ccc(Oc2ccc(Cl)c(Cl)c2)cc1 : 76.4 µM (inactive)
29. CCN1C(Cl)=NS(=O)(=O)c2ccccc21 : > 100 µM (inactive)
30. CC(C)(CN1CCCCC1)C(=O)CC(SCCS(=O)(=O)O)c1ccccc1 (configuration not stated) : 10.9 µM (inactive)
31. COc1ccc(O)c(C(=O)CCC(=O)O)c1 : > 100 µM (inactive)
32. Cc1ccc(OCC2OC(n3cnc4c(Cl)nc(Cl)nc43)CC2Oc2ccc(C)cc2)cc1 (configuration not stated) : 2.52 µM (inactive)
33. C=C1C2CCC3C4(C)CCCC(C)(C(=O)O)C4CCC3(C2)C1OC(=O)/C(C)=C/C (configuration not stated) : 20.3 µM (inactive)
34. CCCCn1c2c(n(CCCC)c1=S)-c1c(n(CCCC)c(=S)n1CCCC)S[Se][Se]S2 : 3.51 µM (inactive)
35. N#CC(C#N)/N=N/c1ccc(-c2nc3ccccc3[nH]2)cc1 : > 100 µM (inactive)
36. CC(C)c1cccc(C(C)C)c1/N=C(/N)C#N : > 100 µM (inactive)
37. CN(C)CCNC(=O)c1cccc2c1nc(-c1ccccn1)c1ccccc12 : 17.6 µM (inactive)
38. CC(C)CCCC(C)C1CCC2C3CC([N+](=O)[O-])=C4CC(O)CCC4(C)C3CCC12C (configuration not stated) : 14.2 µM (inactive)
39. C=CC[C@]1(/C=N/O)CN(S(=O)(=O)CC[Si](C)(C)C)C[C@H]2CC=CC[C@H]21 : 15.6 µM (inactive)
40. CCN(CC)CCn1c2ccccc2c(=O)c2c(O)ccc(O)c21 : 22.5 µM (inactive)
41. CC(C)c1c(P(=O)(c2ccccc2)c2ccccc2)n(C)c2ccccc12 : 45.6 µM (inactive)
42. S=C1OC2C3C4CC5C3C(O1)C1C5C4C21 (configuration not stated) : > 100 µM (inactive)
